EXPERIMENT NOTES: Test 4: metabolic stability test in human hepatic microsome
Assay type: in vitro ADME
CONDITION DETAILS: 0.1 mg/mL microsome, 0.1 μmol/L compound, NADPH, 37° C., 30 minutes
QUANTITY MEASURED: Metabolic stability in human hepatic microsome (mL/min/mg protein)

CHEMICAL SMILES	UNIT TAG	LIMIT OPERATOR	VAL
COc1ncc2c(n1)CCN(CCN1CCN(c3noc4ccccc34)CC1)C2=O	mL/min/mg protein	<	0.05
O=C1c2cncnc2CCN1CCN1CCN(c2nsc3ccccc23)CC1	mL/min/mg protein	=	0.092
Cc1ccc2c(n1)C(=O)N(CCN1CCN(c3noc4ccccc34)CC1)CC2	mL/min/mg protein	<	0.05
O=c1c2cnccc2ccn1CCN1CCN(c2noc3ccccc23)CC1	mL/min/mg protein	=	0.1
Cc1nc2c(o1)CCN(CCN1CCN(c3nsc4ccccc34)CC1)C2=O	mL/min/mg protein	=	0.074
Cn1cnc2c1C(=O)N(CCN1CCC(c3noc4ccccc34)CC1)CCC2	mL/min/mg protein	<	0.05

---

TARGET UNDER TEST: human 5-HT2A receptor (Homo sapiens (Human), UniProt P28223)
Sequence (P28223 whole entry): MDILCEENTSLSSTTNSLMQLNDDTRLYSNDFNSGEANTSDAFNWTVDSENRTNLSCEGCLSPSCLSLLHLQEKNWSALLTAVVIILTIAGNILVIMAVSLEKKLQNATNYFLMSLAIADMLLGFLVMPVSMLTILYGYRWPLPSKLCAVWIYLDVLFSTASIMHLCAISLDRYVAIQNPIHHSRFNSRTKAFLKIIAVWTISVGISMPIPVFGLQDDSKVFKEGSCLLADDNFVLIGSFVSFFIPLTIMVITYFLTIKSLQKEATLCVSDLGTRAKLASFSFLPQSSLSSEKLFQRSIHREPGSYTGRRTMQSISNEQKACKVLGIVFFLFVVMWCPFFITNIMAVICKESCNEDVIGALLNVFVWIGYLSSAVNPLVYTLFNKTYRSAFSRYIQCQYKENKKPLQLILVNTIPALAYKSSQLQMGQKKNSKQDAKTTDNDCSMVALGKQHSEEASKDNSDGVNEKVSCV
EXPERIMENT NOTES: Test 3: antagonist activity for human 5-HT2A receptor (aequorin luminescence, CHO-K1 cells)
CONDITION DETAILS: CHO-K1 cells, aequorin/Gα16, 1 nmol/L 5-HT
pIC50: −log10 of the molar value.
QUANTITY MEASURED: pIC50

MOLECULE	TARGET UNDER TEST	QUANTITY MEASURED	VAL
COc1ccc2c(n1)C(=O)N(CCN1CCC(c3noc4ccccc34)CC1)CC2 [Example 187]	human 5-HT2A receptor (Homo sapiens (Human), UniProt P28223)	pIC50	7.05

---

EXPERIMENT NOTES: Test 4: metabolic stability test in human hepatic microsome
Type: in vitro ADME
CONDITION DETAILS: 0.1 mg/mL microsome, 0.1 μmol/L compound, NADPH, 37° C., 30 minutes
Measured Metabolic stability in human hepatic microsome values are reported for all entries that follow.
QUANTITY MEASURED: Metabolic stability in human hepatic microsome

COMPOUND	VAL
Cn1cnc2c1CCN(CCN1CCC(c3noc4ccccc34)CC1)C2=O [Example 16]	<0.01 mL/min/mg protein
Cc1noc2c1C(=O)N(CCN1CCN(c3noc4ccccc34)CC1)CC2 [Example 32]	<0.01 mL/min/mg protein
O=C1c2ncccc2CCN1CCN1CCN(c2nsc3ccccc23)CC1 [Example 7]	0.041 mL/min/mg protein
COc1ncc2c(n1)CCN(CCN1CCN(c3nsc4ccccc34)CC1)C2=O [Example 177]	0.095 mL/min/mg protein
Cn1ccc2c1CCCN(CCN1CCN(c3noc4ccccc34)CC1)C2=O [Example 109]	<0.01 mL/min/mg protein
Cn1cnc2c1C(=O)N(CCN1CCC(c3noc4ccccc34)CC1)CC2 [Example 133]	<0.05 mL/min/mg protein
Cn1ncc2c1CCC(CCN1CCN(c3nsc4ccccc34)CC1)C2=O (stereo not drawn) [Example 29]	0.063 mL/min/mg protein
O=C1c2occc2CCN1CCN1CCC(c2noc3ccccc23)CC1 [Example 127]	<0.05 mL/min/mg protein
COc1ncc2c(n1)CCN(CCN1CCC(c3noc4ccccc34)CC1)C2=O [Example 176]	<0.05 mL/min/mg protein
